Every entry's value here was drawn from patent US20250290915A1.

System: Circulating Tumour Cells (CTCs) from a patient with renal cancer
Experiment: Drug response score assay on CTCs (with CD45+ cells for immunotherapy) from blood, Example 7
Format: cell-based, human
Parameters: key: normalized drug response metric per Gupta et al. 2020
Conditions: conc. 1: Pembr 20 μg/ml (CTCs + CD45+ cells); Docetax 0.02 μg/ml, Gemcit 2 μg/ml, Topo 5 μg/ml, Etop 1 μg/ml, Eribul 5 μg/ml (CTCs); t96h
Overview of recorded Drug response score, conc. 1 for various compounds
Quick one: just the number, no unit, thanks!

Solved entries (count: 2):
| query_smiles | system_tested | recorded_number |
| --- | --- | --- |
| Nc1ccn([C@@H]2O[C@H](CO)[C@@H](O)C2(F)F)c(=O)n1 | Circulating Tumour Cells (CTCs) from a patient with renal cancer | −0.1637 |
| CC[C@@]1(O)C(=O)OCc2c1cc1n(c2=O)Cc2cc3c(CN(C)C)c(O)ccc3nc2-1 | Circulating Tumour Cells (CTCs) from a patient with renal cancer | 0.1847 |

*Q* # Drug response score, conc. 1 lookup, item `C=C1C[C@@H]2CC[C@@]34C[C@H]5O[C@H]6[C@@H](O3)[C@H]3O[C@H](CC[C@@H]3O[C@H]6[C@H]5O4)CC(=O)C[C@@H]3[C@@H](OC)[C@@H](C[C@H](O)CN)O[C@H]3C[C@H]3O[C@@H](CC[C@@H]1O2)C[C@@H](C)C3=C`
*A* 0.4482

----------
The entries below are paired with their reported Drug response score, conc. 2.
Tested on: cancer cells derived from the tissue sample of a patient with osteosarcoma
Experiment: Drug response score assay on tissue sample, Example 10
Assay type: cell-based, human
Set-up: key: normalized drug response metric per Gupta et al. 2020
Settings: tissue sample; conc. 2 per Table 31: Etop 4, DTIC 3, Ifos 0.25, Doce 0.2, Irinotecan 10 μg/ml
Method: Where a tissue sample was provided by each subject, cancer stem cells (CSCs, CD133^+), were isolated from said sample. Tumour marker cells were further isolated from each tissue sample. The remaining cells were designated tumour marker^+ cells. […] At the end of this culture period, dose response scores were calculated using a normalized drug response metric as described in Gupta et al. (Communications Biology volume 3, Article number: 42 (2020), https://doi.org/10.1038/s42003-020-0765-z). […]

Below: 3 compounds and their reported Drug response score, conc. 2.
| compound | Drug response score, conc. 2 |
| --- | --- |
| CN(C)/N=N/c1[nH]cnc1C(N)=O | 0.4035 |
| COc1cc([C@@H]2c3cc4c(cc3[C@@H](O[C@@H]3O[C@@H]5CO[C@@H](C)O[C@H]5[C@H](O)[C@H]3O)[C@H]3COC(=O)[C@H]23)OCO4)cc(OC)c1O [Etoposide] | 0.0653 |
| CCc1c2c(nc3ccc(OC(=O)N4CCC(N5CCCCC5)CC4)cc13)-c1cc3c(c(=O)n1C2)COC(=O)[C@]3(O)CC | −0.1454 |

*Q* Quick check: Drug response score, conc. 2 on cancer cells derived from the tissue sample of a patient with osteosarcoma, item O=P1(NCCCl)OCCCN1CCCl (centres unmarked) [Ifosfamide] ?
*A* 0.8776

*Q* Same again, this time with `CC(=O)O[C@@]12CO[C@@H]1C[C@H](O)[C@@]1(C)C(=O)[C@H](O)C3=C(C)[C@@H](OC(=O)[C@H](O)[C@@H](NC(=O)OC(C)(C)C)c4ccccc4)C[C@@](O)([C@@H](OC(=O)c4ccccc4)[C@H]21)C3(C)C`
*A* 1.0268
